Tested on: UO-31 renal
assay_details: NCI tumour cell line growth inhibition, 48 h
Parameter TGI: see the listing below.
parameter: TGI

molecule: O=S1(=O)CCCS(=O)(=O)C(c2ccccc2)=C1c1ccccc1
parameter: TGI
endpoint_result: > 100 µM

molecule: O=[N+]([O-])C(=C1Nc2ccccc2N1)/C(Cl)=C(/Cl)N1CCOCC1
parameter: TGI
endpoint_result: > 100 µM

molecule: CCOC(=O)CCC(NC(=O)OCc1ccccc1)C(=O)NC(CCC(=O)OCC)C(=O)NNC(=O)OC(C)(C)C (stereo unspecified)
parameter: TGI
endpoint_result: > 100 µM

molecule: O=C(O)C1(Cc2ccc3c(c2)CCC3)Cc2ccccc2C1
parameter: TGI
endpoint_result: > 100 µM

molecule: Cc1ccc(N=NN(C)C(=O)C(C)N)cc1 (stereo unspecified)
parameter: TGI
endpoint_result: > 100 µM

molecule: O=C(CC(=O)N1N=C(N(c2ccccc2)c2ccccc2)CC1c1ccccc1)Nc1ccc(Cl)cc1 (stereo unspecified)
parameter: TGI
endpoint_result: > 100 µM

molecule: O=C1c2ccccc2CC12Cc1ccccc1C2
parameter: TGI
endpoint_result: > 100 µM

molecule: CCCCC(=O)N/N=C/c1c(O)ccc2ccccc12
parameter: TGI
endpoint_result: 28 µM

molecule: Oc1ccc(CCNCc2cc3c(cc2Br)OCO3)cc1
parameter: TGI
endpoint_result: > 100 µM

molecule: Nc1nc(N)c2c(n1)NC(c1ccccc1)C1CCc3ccccc3C1=N2 (stereo unspecified)
parameter: TGI
endpoint_result: 13.7 µM

molecule: Cc1ccc(C2=Nc3c(N)ncnc3NC(c3ccc4c(c3)OCO4)C2)cc1 (stereo unspecified)
parameter: TGI
endpoint_result: 26.5 µM

molecule: COC1C(OC(=O)/C=C/C=C/C=C/C=C\C(=O)O)CCC2(CO2)C1C1(C)OC1CC=C(C)C (stereo unspecified)
parameter: TGI
endpoint_result: > 200 µM

molecule: NC(=O)C(=O)C(c1ccccc1)S(=O)(=O)Cc1ccccc1 (stereo unspecified)
parameter: TGI
endpoint_result: > 100 µM

molecule: CCCCc1n(Cc2ccc3ccccc3c2)cc[n+]1Cc1ccc2ccccc2c1
parameter: TGI
endpoint_result: 2.96 µM

molecule: Cc1c(N/C=C(\C#N)C(=O)c2ccc(Cl)cc2)c(=O)n(-c2ccccc2)n1C
parameter: TGI
endpoint_result: > 100 µM

molecule: O=C1NC(=O)/C(=C/c2ccc(S(=O)(=O)N/N=C\C(O)C(O)C(O)C(O)CO)cc2)N1 (stereo unspecified)
parameter: TGI
endpoint_result: > 100 µM

====

Parameter TGI: see the listing below.
Test system: HCC-2998 colon
assay_details: NCI tumour cell line growth inhibition, 48 h
parameter: TGI

compound: O=c1c2cc(Cl)ccc2[nH]c2cc(O)cc(O)c12
parameter: TGI
endpoint_result: > 10 µM

compound: O=c1oc2ccc(Cl)cc2cc1-c1cn2ccccc2n1
parameter: TGI
endpoint_result: > 100 µM

compound: COC(=O)c1ccccc1/C=C1\Cc2c(C)cc(C)cc2C1=O
parameter: TGI
endpoint_result: > 100 µM

compound: Fc1cccc(Cl)c1C1SCc2nc3cc4ccccc4cc3n21 (centres undefined)
parameter: TGI
endpoint_result: > 100 µM

compound: Cc1cc2nc3cc(C)c(N)cc3[n+](-c3ccccc3)c2cc1N
parameter: TGI
endpoint_result: > 46 µM

compound: Cc1ccc(N=NN(C)C(=O)C(C)N)cc1 (centres undefined)
parameter: TGI
endpoint_result: > 100 µM

compound: Cc1c(N/C=C(\C#N)C(=O)c2ccc(Cl)cc2)c(=O)n(-c2ccccc2)n1C
parameter: TGI
endpoint_result: > 100 µM

compound: c1cncc(C2Nc3cccc4cccc(c34)N2)c1
parameter: TGI
endpoint_result: > 100 µM

compound: O=S(=O)([O-])[O-].[Cl-].[NH2-].[NH2-].[NH2-].[NH2-].[Ru+3].c1ccncc1
parameter: TGI
endpoint_result: > 100 µM

Origin of values: PubChem BioAssay (NCI)
